Assay: melting temperature; fluorescence melt of hairpins on a sequencing array, two-state fit, raised by 9.35 °C to match UV melts
Conditions: sodium 0.088 M
Measurement Label: Tm (°C)
Lab book: enter the figure in °C, no units written.

Sample answers from the record:
* GGGGTTGGAAACGACTCC ((.((.(....).)).)) | 41.6
* GCGACAGGAAACCATCGC ((((..(....)..)))) | 35.8
* GCGTTGCGAAAGCGAAGC ((.(.((....)).).)) | 54

Tm reading for AATCTGAAAAGATT (((((....))))) : 34.7

Tm reading for GTTTACGAAAGTACAAC ((((((....))).))) : 30.4

Tm reading for GCTGCCGGAAACGACAGC ((((.((....)).)))) : 55.2
